Tgt: Chromo domain-containing protein 1 (Saccharomyces cerevisiae (strain ATCC 204508 / S288c) (Baker's yeast)) (UniProt P32657)
Sequence (P32657 whole entry, the tested form may be a part): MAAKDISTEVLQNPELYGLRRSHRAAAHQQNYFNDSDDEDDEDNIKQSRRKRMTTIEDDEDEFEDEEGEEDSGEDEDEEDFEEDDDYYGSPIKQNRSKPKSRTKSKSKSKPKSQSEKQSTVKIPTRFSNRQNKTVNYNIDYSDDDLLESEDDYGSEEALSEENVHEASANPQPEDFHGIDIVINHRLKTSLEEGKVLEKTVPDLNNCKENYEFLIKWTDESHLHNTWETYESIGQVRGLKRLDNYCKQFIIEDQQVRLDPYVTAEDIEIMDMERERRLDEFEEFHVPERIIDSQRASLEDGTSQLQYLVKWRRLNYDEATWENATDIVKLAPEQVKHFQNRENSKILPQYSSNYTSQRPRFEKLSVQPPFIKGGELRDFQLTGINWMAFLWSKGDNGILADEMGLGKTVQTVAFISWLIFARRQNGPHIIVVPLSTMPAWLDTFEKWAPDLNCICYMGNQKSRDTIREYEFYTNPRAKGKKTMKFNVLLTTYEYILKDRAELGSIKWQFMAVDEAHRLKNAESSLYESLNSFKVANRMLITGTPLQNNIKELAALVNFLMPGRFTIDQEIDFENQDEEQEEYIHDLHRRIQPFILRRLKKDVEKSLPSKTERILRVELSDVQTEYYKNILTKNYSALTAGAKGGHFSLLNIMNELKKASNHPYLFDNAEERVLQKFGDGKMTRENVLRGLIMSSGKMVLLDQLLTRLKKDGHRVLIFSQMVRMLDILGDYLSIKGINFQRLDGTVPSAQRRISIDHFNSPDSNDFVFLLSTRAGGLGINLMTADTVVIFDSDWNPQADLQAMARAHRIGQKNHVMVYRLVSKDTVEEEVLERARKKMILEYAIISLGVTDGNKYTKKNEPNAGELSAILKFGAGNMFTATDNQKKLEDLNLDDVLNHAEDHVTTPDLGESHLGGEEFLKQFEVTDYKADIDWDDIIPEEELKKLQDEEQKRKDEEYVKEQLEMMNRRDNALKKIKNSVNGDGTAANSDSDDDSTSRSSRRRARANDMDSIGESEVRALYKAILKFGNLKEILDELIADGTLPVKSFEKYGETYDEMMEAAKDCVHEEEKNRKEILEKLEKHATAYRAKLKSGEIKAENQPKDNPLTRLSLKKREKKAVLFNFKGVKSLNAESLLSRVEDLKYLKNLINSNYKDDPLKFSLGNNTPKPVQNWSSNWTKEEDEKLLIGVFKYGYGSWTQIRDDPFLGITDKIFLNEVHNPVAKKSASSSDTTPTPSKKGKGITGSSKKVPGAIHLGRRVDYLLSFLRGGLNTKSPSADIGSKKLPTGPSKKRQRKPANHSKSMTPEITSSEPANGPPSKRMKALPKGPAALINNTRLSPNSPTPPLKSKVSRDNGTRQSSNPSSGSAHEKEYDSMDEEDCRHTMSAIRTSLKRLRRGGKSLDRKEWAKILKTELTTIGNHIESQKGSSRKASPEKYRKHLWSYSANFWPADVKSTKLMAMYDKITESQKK
Procedure text: ScCHD-1 Enzyme Inhibition Assay; further: in the data most compounds retested in dose-response had high values
Type: functional
Design: scale not given: direction of the effect not stated beside the values
Protocol conditions: 30 µM
Measure name: Percent Effect (%)
Entry rule: numbers only, all in %.

Completed entries (count: 3):
1. c1ccc(CN2CC[C@@H]3O[C@H](COCc4ccncc4)CC[C@@H]32)nc1 : -2.83
2. Cc1nn(CC(=O)N2CCCC2Cn2cccn2)c(C)c1Cl (centres undefined) : -6.56
3. Cc1c(C(=O)NC(CN2CCCC2=O)c2ccccc2)cnn1C (centres undefined) : -6.11

Exercise: What Percent Effect value was documented for this compound, Cc1nc(C)n(C2CCCN(C(=O)c3ccc4c(c3)COC4)C2)n1 (centres undefined) ?
Key: 0.576

---

Tgt: Chromo domain-containing protein 1 (Saccharomyces cerevisiae (strain ATCC 204508 / S288c) (Baker's yeast)) (UniProt P32657)
Procedure text: ScCHD-1 Enzyme Inhibition Assay; further: in the data most compounds retested in dose-response had high values
Assay type: functional
Set-up: scale not given: direction of the effect not stated beside the values
Protocol conditions: 30 µM
Measure name: Percent Effect (%)
API: value field is a number in %; no unit string.

Known results for compounds:
1. O=C(NC[C@H]1OC[C@@H]2CCN(C(=O)c3ccco3)C[C@@H]21)C1CC1 : -4.6
2. O=C(CC1CCCO1)NCc1ccccc1Cn1cncn1 (stereo not given) : -2.47
3. NC(=O)C1CCN(Cn2nc(-c3ccc(F)cc3)oc2=O)CC1 : -2.23

Exercise: Form field: reported Percent Effect of Cc1nccn1-c1cc(CNC(=O)C(C)(C)C)ccn1
Key: -6.75

Exercise: Item under review: Cn1cnc2c1CCN(Cc1nc(Cc3ccccc3)no1)C2 . Reported Percent Effect?
Key: 3.08

---

Tgt: Ubiquitin-activating enzyme e1, putative (Leishmania donovani (strain BPK282A1)) (UniProt E9BSI1)
Sequence (whole entry): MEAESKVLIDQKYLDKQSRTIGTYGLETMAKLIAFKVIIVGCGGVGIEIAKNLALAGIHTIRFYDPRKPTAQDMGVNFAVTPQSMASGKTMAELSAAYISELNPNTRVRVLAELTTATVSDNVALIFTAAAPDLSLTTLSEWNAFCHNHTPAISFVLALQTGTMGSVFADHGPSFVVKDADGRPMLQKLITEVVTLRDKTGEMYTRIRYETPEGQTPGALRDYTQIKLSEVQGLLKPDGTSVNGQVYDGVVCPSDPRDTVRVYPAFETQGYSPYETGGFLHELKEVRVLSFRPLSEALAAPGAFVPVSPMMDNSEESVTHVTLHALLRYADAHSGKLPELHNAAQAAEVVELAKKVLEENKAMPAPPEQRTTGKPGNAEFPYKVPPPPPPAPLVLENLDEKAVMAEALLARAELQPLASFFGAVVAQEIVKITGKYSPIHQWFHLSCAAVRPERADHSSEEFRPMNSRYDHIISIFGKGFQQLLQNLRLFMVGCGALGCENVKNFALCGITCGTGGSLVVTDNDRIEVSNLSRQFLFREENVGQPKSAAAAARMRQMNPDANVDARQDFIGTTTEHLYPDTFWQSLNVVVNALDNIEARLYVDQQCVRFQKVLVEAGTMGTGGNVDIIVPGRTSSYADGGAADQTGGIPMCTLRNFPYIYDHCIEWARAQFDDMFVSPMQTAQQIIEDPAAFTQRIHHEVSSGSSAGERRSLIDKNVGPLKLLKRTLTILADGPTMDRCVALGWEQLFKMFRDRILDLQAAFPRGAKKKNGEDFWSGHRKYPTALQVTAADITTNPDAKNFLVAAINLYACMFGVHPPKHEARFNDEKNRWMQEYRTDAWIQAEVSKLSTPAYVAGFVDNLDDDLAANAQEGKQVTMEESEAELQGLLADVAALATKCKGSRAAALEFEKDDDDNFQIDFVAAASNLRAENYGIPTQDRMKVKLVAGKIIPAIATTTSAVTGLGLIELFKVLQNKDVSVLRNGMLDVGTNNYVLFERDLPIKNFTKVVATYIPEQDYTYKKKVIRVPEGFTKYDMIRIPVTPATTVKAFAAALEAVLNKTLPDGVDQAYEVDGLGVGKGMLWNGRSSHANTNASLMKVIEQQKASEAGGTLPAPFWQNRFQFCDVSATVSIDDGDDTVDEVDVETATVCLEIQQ
Procedure text: Leishmania donovani Ubiquitin Activating Enzyme (LdE1)
Type: functional
Design: scale not given: direction of the effect not stated beside the values
Protocol conditions: 30 µM
Entries with a potency or affinity are not part of this list.
Some compounds, each annotated with its measured Percent Effect.
Numbers only; they are read as %.

Examples with their reported Percent Effect follow.
1. Cc1cc(S(=O)(=O)N2CCCc3ccc(F)cc32)sc1C(=O)O : 0
2. O=C(Nc1cccc(OCc2cccc(F)c2)c1)C1COCCO1 (stereo not given) : -8
3. Cc1nc(-c2ccco2)ccc1C(=O)N1CCCC1Cn1cccn1 (stereo not given) : 1.27
4. CC1CCCCN1c1nc2c(c(=O)[nH]1)CCN(Cc1cccnc1)C2 (stereo not given) : 12.2

// next item, Percent Effect requested
Exercise: # input compound: CCN(C)c1ccc(C(=O)N(CCOC)Cc2ccccn2)cc1 ; wanted: its Percent Effect
Key: 21.3
